# Target Entity: Glutathione peroxidase 1 (Homo sapiens) (UniProt P07203)
# Sequence (P07203 whole entry, looked up): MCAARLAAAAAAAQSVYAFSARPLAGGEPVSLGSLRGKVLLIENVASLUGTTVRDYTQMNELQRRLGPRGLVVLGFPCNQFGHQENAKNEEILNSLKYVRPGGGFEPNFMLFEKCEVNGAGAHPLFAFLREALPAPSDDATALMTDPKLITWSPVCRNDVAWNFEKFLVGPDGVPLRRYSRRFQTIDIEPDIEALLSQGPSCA
# Protocol: Primary qHTS Assay for Inhibitors of Recombinant Selenoprotein Glutathione Peroxidase 1 (GPX1) (AID 1845191); further: nearly all actives have a fitted effect of over 65% in size
# Condition Set: recombinant GPX1, GR-coupled NADPH fluorescence, 15 min; series mostly up to 48.8 µM
Inconclusive results are not listed. Calls of active or inactive are those of the source. The call rests on the fitted dose curve; in most records, active means well fitted inhibition curve with a large enough effect; inconclusive means small, poorly fitted or top-dose-only effect; inactive means flat fitted curve, though single readings scatter.
Mark one answer only. Choices: active, inactive

Use the examples below as a reference point.
COc1ccc(CNC(=O)Nc2ncc([N+](=O)[O-])s2)cc1 = inactive
CCCc1c(C(C)C)nc(C(C)C)c([C@@H](C)O)c1-c1ccc(F)cc1O = inactive

I would be grateful if you could indicate the recorded call for "N[C@@H](C(=O)N[C@@H]1C(=O)N2C(C(=O)O)=C(CSc3cn[nH]n3)CS[C@H]12)c1ccc(O)cc1" .
active

I would be grateful if you could indicate the recorded call for "CN(CC(=O)N(Cc1ccc(C2CCCCC2)cc1)c1ccc(C(=O)O)cc1)S(=O)(=O)c1c(F)c(F)c(F)c(F)c1F" .
inactive

I would be grateful if you could indicate the recorded call for "CN1CCN(CCC=C2c3ccccc3Sc3ccc(S(=O)(=O)N(C)C)cc32)CC1" .
inactive

----------
# Test system: CASKI
# Protocol: Primary qHTS to identify gynecologic anti-cancer compounds using libraries of approved drugs and bioactive compounds (AID 1345084); further: nearly all actives have a fitted effect of over 55% in size
# Condition Set: Gynecologic cancer cell panel viability, ATPlite luminescence, 48 h; series mostly up to 57.5 µM
Results filed as inconclusive are left out. The source made the active and inactive calls. Calls come from the whole dose curve; as a rule, active = well fitted cell-killing curve with a large enough effect; inconclusive = small, poorly fitted or top-dose-only effect, or effect the other way; inactive = flat fitted curve, though single readings scatter.
Measured Attribute: outcome

# example entries with known answers
CC1CCN(C(c2ccc(F)cc2)c2ccc(C(C)C(=O)O)cc2-c2ccc(C(F)(F)F)cc2)CC1 (centres undefined) = inactive
COc1cc(-c2cc(-c3ccc(N4CCNCC4)cc3)cnc2C)cc(OC)c1OC = inactive
COc1ccc2c(c1)CN(C(=O)CCN1CCC(Cc3ccccc3)CC1)CCS2 = inactive
COc1cccc(CNC(=O)Nc2nc(-c3ccncc3)cs2)c1 = inactive
Cc1nc(C)c2c(n1)N(Cc1ccc(-c3ccccc3-c3nn[nH]n3)cc1)C(=O)CC2 = inactive
CC(C)N(CCCNC(=O)Nc1ccc(C(C)(C)C)cc1)C[C@H]1O[C@@H](n2cc(Br)c3c(N)ncnc32)[C@H](O)[C@@H]1O = inactive
COc1ccc(Cl)cc1[C@@]1(F)C(=O)Nc2cc(C(F)(F)F)ccc21 = inactive
O=C(/C=C/n1cnc(-c2cc(C(F)(F)F)cc(C(F)(F)F)c2)n1)NNc1cnccn1 = inactive

Provide outcome, tested on CASKI, for "COc1ccc(-c2c(C)c(C(=O)NN3CCCCC3)nn2-c2ccc(Cl)cc2Cl)cc1" .
inactive

----------
# Protocol: qHTS for Inhibitors of Plasmodium falciparum (7G8) proliferation (AID 504316); further: nearly all actives have a fitted effect of over 65% in size
# Condition Set: P. falciparum 7G8 in erythrocytes, SYBR Green DNA, 72 h; series mostly up to 6.7 µM
# Source text: Plasmodium falciparum is a virulent malarial parasite that kills 1-2 million people worldwide each year. Malaria not only inflicts tremendous suffering and morbidity on the human population, but has dramatically influenced the course of civilization with profound sociological and economic implications (Shah, S. 2010). […] Because mature erythrocytes lack DNA, only Plasmodium-derived DNA is detected. […]
Results filed as inconclusive are left out. Calls of active or inactive are those of the source. Calls come from the whole dose curve; as a rule, active = well fitted inhibition curve with a large enough effect; inconclusive = small, poorly fitted or top-dose-only effect; inactive = flat fitted curve, though single readings scatter.
Mark one answer only. Choices: 1 (active), -1 (inactive)

Use the examples below as a reference point.
COC(=O)c1c(C(=O)OC)c2c3ccccc3cc(-c3ccccc3)n2c1C(=O)OC = -1
Cc1cc(F)ccc1O[C@H]1C=C[C@@H](c2ccc3c(c2)OCO3)O[C@H]1CO = -1
COc1ccc([C@]23Cc4c(ccc5ccccc45)[C@H](O2)c2c(cc(-c4ccccc4)oc2=O)O3)cc1 = -1
COCCN1C(=NCCc2cccnc2)NC(c2ccccc2)C(C(=O)OC)=C1C (centres undefined) = -1
COC(=O)C(C(=O)OC)C1c2ccccc2C=C(C2CC2)N1C(=O)OC (centres undefined) = -1

I would be grateful if you could indicate the recorded call for "C#CCCOC(=O)N1C2=NC(C(=O)OC)=C(C(=O)OC)[C@@H]3N(C)c4ccccc4[C@]23C[C@H]1C(=O)OC" .
-1

I would be grateful if you could indicate the recorded call for CCC=CCCC(OC(=O)c1ccc(Br)cc1)C1=CCCCC1=O (centres undefined) .
-1

I would be grateful if you could indicate the recorded call for CCN1C(=NCc2ccc(OC)cc2)NC(c2ccccc2)C(C(=O)OC)=C1C (centres undefined) .
-1

I would be grateful if you could indicate the recorded call for "CC1(C)CC(=O)C2=C(C1)O[C@@]1(CCCCN3C(=O)c4ccccc4C3=O)Cc3cc(C#N)ccc3[C@H]2O1" .
1

I would be grateful if you could indicate the recorded call for "COc1cccc([C@@H]2Oc3ccc(Br)cc3C[C@@H]2OC(=O)N[S+](=O)([O-])c2ccc(C)cc2)c1" .
-1

I would be grateful if you could indicate the recorded call for CC=CCCN1C=C(C(C)=O)C(c2ccccc2)NC1=O (centres undefined) .
-1

I would be grateful if you could indicate the recorded call for "COC(=O)c1ccc(CN2C(=O)[C@]3(OCCC=C[C@@H]3C)c3c(Br)cccc32)cc1" .
-1

I would be grateful if you could indicate the recorded call for "C=CCOC(=O)N[C@H](C(C(=O)OC)=C(C)NCc1ccccc1)c1ccc2c(c1)OCO2" .
-1

I would be grateful if you could indicate the recorded call for "COC(=O)C(Cc1cc(Br)c(OC)c(Br)c1O)=NO" .
-1

I would be grateful if you could indicate the recorded call for "C=CCN1C(=O)[C@@]2(CC(C)=CC[C@@H](C)O2)c2c(Br)cccc21" .
-1

I would be grateful if you could indicate the recorded call for COC(=O)CC1c2ccccc2C(Cc2ccc(OC)cc2)C(C)N1C(=O)OC (centres undefined) .
-1

I would be grateful if you could indicate the recorded call for "COCC(=O)N1CCc2nc(-c3ccccc3)c3c(c2C1)CO[C@@H](C)C3" .
-1

I would be grateful if you could indicate the recorded call for "C=CCN=C1N[C@@H](c2ccccc2)[C@H](C(=O)OC)[C@@H](C)N1CC" .
-1

I would be grateful if you could indicate the recorded call for "COc1ccc(COC(=O)NN=C2C[C@@H](O)[C@@H](O)[C@@H]3[C@H]4C(=O)N(c5ccc(F)cc5F)C(=O)[C@@H]4CC[C@H]23)cc1" .
-1

----------
# Target Entity: Flap endonuclease 1 (Homo sapiens) (UniProt P39748)
# Sequence (P39748 whole entry, looked up): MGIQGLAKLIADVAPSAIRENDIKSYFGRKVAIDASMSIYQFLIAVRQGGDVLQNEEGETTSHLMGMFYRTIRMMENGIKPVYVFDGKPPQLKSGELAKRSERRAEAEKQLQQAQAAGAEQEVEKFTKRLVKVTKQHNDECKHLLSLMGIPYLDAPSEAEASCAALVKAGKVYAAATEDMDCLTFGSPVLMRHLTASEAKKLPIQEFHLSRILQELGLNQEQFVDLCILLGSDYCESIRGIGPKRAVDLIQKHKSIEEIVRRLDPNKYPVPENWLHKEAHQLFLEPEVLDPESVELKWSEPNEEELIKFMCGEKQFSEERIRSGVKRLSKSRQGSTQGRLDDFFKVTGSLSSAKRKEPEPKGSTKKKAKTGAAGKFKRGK
# Protocol: qHTS Validation Assay for the Inhibitors of Human Flap endonuclease 1 (FEN1) (AID 488816); further: potency means the concentration at half of the fitted maximal effect
# Condition Set: FEN1 nuclease activity, fluorogenic DNA substrate; series mostly up to 57.1 µM
The source made the active and inactive calls. The call rests on the fitted dose curve; in most records, active means well fitted inhibition curve with a large enough effect; inconclusive means small, poorly fitted or top-dose-only effect; inactive means flat fitted curve, though single readings scatter.
Measured Attribute: Potency

# example entries with known answers
Nc1c(S(=O)(=O)O)cc(Nc2ccc(Nc3nc(Cl)nc(Nc4ccc(S(=O)(=O)O)cc4)n3)c(S(=O)(=O)O)c2)c2c1C(=O)c1ccccc1C2=O = 0.947 µM (active)
N.N.O=C(O)C1(C(=O)O)CCC1.[Pt+2] = 29.9 µM (active)
N#C/C(=C\c1ccc(O)c(O)c1)C(=O)Nc1ccccc1 = 18.9 µM (active)
C1CCC(N=C(NC23CC4CC(CC(C4)C2)C3)N2CCOCC2)CC1 = inactive
S=C(Nc1ccccc1)Nc1nccs1 = inactive
Oc1cc2c(c(Cl)c1O)CCNCC2c1ccccc1 (stereo not drawn) = inactive
C[C@H](Cc1ccccc1)Nc1ncnc2c1ncn2[C@@H]1O[C@H](CO)[C@@H](O)[C@H]1O = inactive

Proceed to the following item.
Supply recorded Potency for "O=C1c2ccccc2C(=O)c2c(NCCc3ccc(O)cc3)ccc(NCCc3ccc(O)cc3)c21" here.
inactive

----------
# Protocol: Primary qHTS for inhibitors of nuclear receptor binding SET domain protein 2 (NSD2) in an isogenic RCH-ACV NSD2 p.E1099K mutant (9B) (AID 1645876); further: nearly all actives have a fitted effect of over 70% in size; further: potency means the concentration at half of the fitted maximal effect
# Condition Set: RCH-ACV (leukaemia line) NSD2 E1099K (9B) viability, CellTiter-Glo, 72 h; series mostly up to 44.9 µM
Results filed as inconclusive are left out. Calls of active or inactive are those of the source. Calls come from the whole dose curve; as a rule, active = well fitted inhibition curve with a large enough effect; inconclusive = small, poorly fitted or top-dose-only effect; inactive = flat fitted curve, though single readings scatter.
Measured Attribute: Potency

# example entries with known answers
CN(CC(=O)N(Cc1ccc(C2CCCCC2)cc1)c1ccc(C(=O)O)cc1)S(=O)(=O)c1c(F)c(F)c(F)c(F)c1F = 7.28 µM (active)
Cc1c[nH]c(/C=C2\C(=O)Nc3ccccc32)c1CCC(=O)O = 14.8 µM (active)
CC1CCC2(NC1)OC1CC3C4CC=C5CC(O[C@@H]6O[C@H](CO)[C@@H](O[C@@H]7O[C@@H](C)[C@H](O)[C@@H](O)[C@H]7O)[C@H](O)[C@H]6O[C@@H]6O[C@@H](C)[C@H](O)[C@@H](O)[C@H]6O)CCC5(C)C4CCC3(C)C1C2C (stereo partly specified) = 3.46 µM (active)
O=S(=O)(/N=C/c1c(O)ccc2ccccc12)c1cccs1 = inactive
CN(C)CCCNc1c2ccccc2nc2c1[nH]c1ccccc12 = 1.84 µM (active)

I have 8 compounds here; please give me Potency for each one.
1. O=C1c2c(O[C@@H]3O[C@H](CO)[C@@H](O)[C@H](O)[C@H]3O)cc(O)cc2OC1(O)Cc1ccc(O)cc1 (stereo partly specified)
2. COc1cc2ncnc(Sc3nnc(C)s3)c2cc1OC
3. CCN1CCC[C@@H]1CNC(=O)c1ccc2c(c1)NC(=O)/C(=C/c1ccccc1F)S2
4. CN[C@H]1CCN(C(=O)c2ccc(Nc3ncc(F)c(-c4cnc(C)n4C(C)C)n3)cc2)C1
5. CN1CCC(c2c(O)cc(O)c3c(=O)cc(-c4ccccc4Cl)oc23)C1CO (stereo unspecified)
6. CNc1cc2c(Nc3cccc(Br)c3)ncnc2cn1
7. O=C1CCCC2=C1C(c1ccccc1Br)N=C(Nc1nc3ccccc3o1)N2 (stereo unspecified)
8. COc1ccc2cc1Oc1ccc(cc1)CC1c3cc(c(OC)cc3CCN1C)Oc1c(OC)c(OC)c(OC)c3c1C(C2)N(C)CC3 (stereo unspecified)

1: 7.96 µM (active); 2: 2.91 µM (active); 3: 4.59 µM (active); 4: 0.092 µM (active); 5: 0.417 µM (active); 6: 14.6 µM (active); 7: inactive; 8: inactive

I have 3 compounds here; please give me Potency for each one.
1. CC(N)C1CCC(C(=O)Nc2ccncc2)CC1 (stereo unspecified)
2. CC(=O)C1=C(O)C2c3c[nH]c4cccc(c34)CC2C(C)(C)N(C)C1=O (stereo unspecified)
3. CC1OC2O[C@H]3[C@@H](OCC(O)[C@H]3O)OC(=O)C34CCC(C)(C)CC3C3=CCC5C6(C)CC(O)C(OC7OC(CO)C(O)C(O)C7O[C@@H]7OC[C@H](OC(=O)CC(C)(O)CC(=O)OC1C(OC1OCC(O)C(O)C1O)C2O)[C@@H](O)[C@H]7O)C(C)(CO)C6CCC5(C)C3(C)CC4 (stereo partly specified)

1. inactive
2. 18.3 µM (active)
3. 8.93 µM (active)

I have 7 compounds here; please give me Potency for each one.
1. Cc1ccc([N+](=O)[O-])cc1S(=O)(=O)N(C)/N=C\c1cnc2ccc(Br)cn12
2. Fc1ccc(C2CCNC[C@H]2COc2ccc3c(c2)OCO3)cc1 (stereo partly specified)
3. Cc1cc(N=Nc2ccc(S(=O)(=O)Nc3ccccn3)cc2)c(N)cc1O
4. COC1CC(=O)C23C(=O)NC(CC(C)C)C2C(C)C(C)=CC3/C=C(\C)CCC(O)C1O (stereo unspecified)
5. CNc1cc(OC)c(C(=O)N[C@@H]2CCN(Cc3ccccc3)[C@@H]2C)cc1Cl
6. C=C1C(=O)O[C@@H]2C[C@@]3(C)CCC[C@H](C)C3=C[C@H]12
7. O=C(c1ccc(F)c(F)c1Nc1ccc(I)cc1F)N1CC(O)([C@@H]2CCCCN2)C1

1. 0.058 µM (active)
2. 18.3 µM (active)
3. 8.17 µM (active)
4. 3.99 µM (active)
5. 20.5 µM (active)
6. 14.5 µM (active)
7. 14.8 µM (active)

I have 3 compounds here; please give me Potency for each one.
1. CN(CCO)C1CCN(c2ccc(Nc3ncc4c5ccnc(F)c5n(C5CCCC5)c4n3)nc2)CC1
2. COc1cc(OC)cc(N(CCNC(C)C)c2ccc3ncc(-c4cnn(C)c4)nc3c2)c1
3. COc1ccccc1-c1cc(Nc2cccc(CS(N)(=O)=O)c2)ncn1

1: 0.574 µM (active); 2: 11.8 µM (active); 3: 4.09 µM (active)

I have 6 compounds here; please give me Potency for each one.
1. C=C1C(=O)O[C@@H]2C[C@@H](C)[C@]34C[C@]5(C(=O)O[C@H]6CC(C)=C([C@H](C)CCCO)[C@H](OC(=O)C(C)CC)[C@H]65)[C@@H](C(C)=C3C[C@@H]12)[C@H]4OC(C)=O (stereo partly specified)
2. CN(C)CCCNc1nc(CN2CCN(C(c3ccc(Cl)cc3)c3ccc(Cl)cc3)CC2)nc2ccccc12
3. O=C(CC1NCCC[C@H]1O)Cn1cnc2cc(Br)c(Cl)cc2c1=O (stereo partly specified)
4. Cn1cc(C2=C(c3cn(CCCSC(=N)N)c4ccccc34)C(=O)NC2=O)c2ccccc21
5. Nc1[nH]nc2nc3ccccc3nc12
6. CC(C)COc1ccc(CNC(=O)N(Cc2ccc(F)cc2)C2CCN(C)CC2)cc1

1: 2.16 µM (active); 2: 9.16 µM (active); 3: inactive; 4: 1.46 µM (active); 5: inactive; 6: 20.5 µM (active)

I have 4 compounds here; please give me Potency for each one.
1. COC(=O)c1ccc(=O)c2nc3/c(=C/O)c(O)cc(=O)c3[nH]c12
2. Cc1cc(N2CCOCC2)cc2[nH]c(-c3c(NCC(O)c4cccc(Cl)c4)cc[nH]c3=O)nc12 (stereo unspecified)
3. CCC(=O)c1cc(-c2ccc(Cl)cc2)n(-c2ccc(S(N)(=O)=O)cc2)c1C
4. COC(=O)/C=C/C(=O)N(O)CCCCNCc1ccc(COC(=O)Nc2cccc3ccccc23)cc1

1. 5.17 µM (active)
2. 1.64 µM (active)
3. 23 µM (active)
4. 9.34 µM (active)
